For each of the compounds below, state its TGI.
- Test system: HCC-2998 colon
- test_name: NCI tumour cell line growth inhibition, 48 h
Where a SMILES comes first, the peptide text is derived from it. The star is where a group is joined. Boc = CC(C)(C)OC(=O)*; OBn = c1ccc(CO*)cc1
Give bare numbers, in µM.

For orientation, consider the following solved cases.
>  <compound>
COc1cccc(CN(C)c2ccc(CO)c(Cl)c2)c1

>  <tested_system>
HCC-2998 colon

>  <TGI / µM>
74.8

$$$$
>  <compound>
COC(=O)c1c(C)cccc1C1CN=NC12Cc1ccc(C)c(C)c1C2=O (stereo not given)

>  <tested_system>
HCC-2998 colon

>  <TGI / µM>
90.6

$$$$
>  <compound>
O=C(Nc1ccc(-n2ccc3c(NC(=O)c4ccccc4)ncnc32)cc1)c1cccc(C(F)(F)F)c1

>  <tested_system>
HCC-2998 colon

>  <TGI / µM>
27

$$$$
>  <compound>
CC(C)CC(NC(=O)OC(C)(C)C)C(=O)NC(CC(=O)OCc1ccccc1)C(=O)OCc1ccccc1 (stereo not drawn) (Boc-Leu-Asp(OBn)-OBn; configuration not given here)

>  <tested_system>
HCC-2998 colon

>  <TGI / µM>
56.8

$$$$
>  <compound>
CC(C)(O)/C=C/C(=O)[C@](C)(O)[C@H]1[C@H](O)C[C@@]2(C)[C@@H]3CC=C4[C@@H](C[C@H](O)C(=O)C4(C)C)[C@]3(C)C(=O)C[C@]12C

>  <tested_system>
HCC-2998 colon

>  <TGI / µM>
8.67

$$$$

Hi team, please reply with TGI for each item in this list.
1. CC(=O)NNc1nc(C)c(C(=O)NNC(=O)C(=O)Nc2cccc(C(C)=O)c2)s1
2. CN1CCN(CCOc2ccc(-c3cnc4c(-c5cccc(F)c5)cnn4c3)cc2)CC1
3. Cc1cccc2c1c1ccc3c(c1n2C)C(=O)C=CC3=O
4. CCCCCN(CCCCC)CC(O)c1cc(Cl)ccc1OC (stereo not given)
5. CSc1ncc(Br)c(Sc2nc(N)nc3nc[nH]c23)n1
6. COc1ccc2nc3c(c(NCCCN(C)C)c2c1)CCCC3
7. O=C(Nc1ccc(F)cc1F)c1cc(Cl)ccc1O
8. CC1(c2cc3c(cc2Br)OCO3)SCCCS1

32.5
3.28
32.8
17.8
16.2
21.5
9.51
77.3

###

- System: SK-OV-3 ovarian
- test_name: NCI tumour cell line growth inhibition, 48 h
observable: TGI

For orientation, consider the following solved cases.
>  <compound>
CCN(CC)CCCNC(=O)c1cc2cc(NC(=O)c3cc4cc([N+](=O)[O-])ccc4[nH]3)ccc2[nH]1

>  <reported_result>
> 100 µM

$$$$
>  <compound>
CN(C)/C=N\c1ccnc(=O)[nH]1

>  <reported_result>
> 100 µM

$$$$
>  <compound>
COc1ccc(C2OCCN2C)cc1 (stereo unspecified)

>  <reported_result>
> 100 µM

$$$$
>  <compound>
CCOC(=O)C(NC(=O)CC)(Nc1ccc(S(=O)(=O)Nc2onc(C)c2C)cc1)C(F)(F)F (stereo unspecified)

>  <reported_result>
> 100 µM

$$$$
>  <compound>
NS(=O)(=O)c1ccc(N2N=C3c4ccccc4CC3C2c2cccs2)cc1 (stereo unspecified)

>  <reported_result>
> 100 µM

$$$$

Hi team, please reply with TGI for each item in this list.
1. Cc1c2c(cc3c1C(=O)C(=O)C1=C3OC[C@@H]1C)C(C)(C)CCC2
2. O=C(O)c1cc(=O)c2c([nH]c3ccccc32)s1
3. O=C1CC(C(CC(=O)c2ccccc2)c2ccccc2)C(=O)c2ccccc2N1 (stereo unspecified)
4. COC(=O)c1cc2c(cc1Cl)SC1=NN(C)S(=O)N1S2(=O)=O (stereo unspecified)
5. C=C(C)C1CC/C(C)=C/CC[C@]2(C)O[C@@H]2CCC2=CC1OC2=O (stereo partly specified)

1: 82.8 µM; 2: > 100 µM; 3: > 100 µM; 4: > 100 µM; 5: > 100 µM

Hi team, please reply with TGI for each item in this list.
1. CCC(C)Oc1nc2c(c(=O)n(C)c(=O)n2C)n1C (stereo unspecified)
2. Cc1cc(Cl)ccc1OCC(=O)Nc1nc(N)nc(N)n1
3. CCOc1ccc(/C(C=O)=C(\Cl)c2ccc(OC)cc2)cc1
4. Cn1c(=O)c2[nH]c(SCCN3CCOCC3)nc2n(C)c1=S
5. O=c1c2ccccc2nc(-c2ccccc2)n1NC(=S)Nc1ccc(Cl)cc1

> 100 µM
> 100 µM
> 100 µM
> 100 µM
> 100 µM

###

For each of the compounds below, state its TGI.
- System: SN12C renal
- test_name: NCI tumour cell line growth inhibition, 48 h

>  <compound>
O=[N+]([O-])c1ccc2oc(=Nc3ccccc3)c(Nc3ccccc3)nc2c1

>  <TGI>
> 100 µM

$$$$
>  <compound>
CCn1c(-c2cc3c([nH]c4ccccc43)c(-c3cccc(O)c3)n2)n[nH]c1=S

>  <TGI>
22.1 µM

$$$$
>  <compound>
COc1ccccc1N=Nc1c(O)c(S(=O)(=O)O)cc2cc(S(=O)(=O)O)ccc12

>  <TGI>
> 100 µM

$$$$
>  <compound>
Cn1c([C@H](C#N)C(=O)c2cc(O)ccc2[N+](=O)[O-])nc2ccccc21

>  <TGI>
> 100 µM

$$$$
>  <compound>
Cn1c(=O)c2[nH]c(SCCN3CCOCC3)nc2n(C)c1=S

>  <TGI>
> 100 µM

$$$$

Hi team, please reply with TGI for each item in this list.
1. O=Nn1c2ccccc2c2cc([N+](=O)[O-])ccc21
2. CC(=O)NC1=C(NCCCl)C(=O)c2ccccc2C1=O

1: 37 µM; 2: > 100 µM

Hi team, please reply with TGI for each item in this list.
1. Cc1ccc(S(=O)(=O)[C@@H](Cl)[C@H]2N=C(Cl)NN=C2c2ccccc2)cc1
2. C[N+](C)(C)C=Nc1cccc2c1CCCC2
3. CC(=O)OC1C2CCC3C(C)(O)C4CC(O)C(C)(C)C4(O)C(O)CC13CC2(C)O (stereo not given)

54 µM
> 100 µM
> 100 µM

###

- System: SF-295 CNS
- test_name: NCI tumour cell line growth inhibition, 48 h; in the data active means GI50 below about 0.43 µM; inactive means the rest
Use one of these outcomes when replying: active, inactive

The following compounds have reported results that may help.
>  <given_smiles>
Cc1ccc2nc(-c3ccc(OCC(=O)N=Nc4c(O)[nH]c5ccccc45)cc3)[nH]c2c1

>  <label_class>
inactive

$$$$
>  <given_smiles>
[O-]c1ccccc1C=Nc1ccc2c(c1)CCC2.[O-]c1ccccc1C=Nc1ccc2c(c1)CCC2.[O]=[U+2]=[O]

>  <label_class>
inactive

$$$$
>  <given_smiles>
CC(C)(O)/C=C/C(=O)[C@](C)(O)[C@H]1[C@H](O)C[C@@]2(C)[C@@H]3CC=C4[C@@H](C[C@H](O)C(=O)C4(C)C)[C@]3(C)C(=O)C[C@]12C

>  <label_class>
active

$$$$

--- query ---
Name the outcome recorded for O=C(Nc1ccc(-n2ccc3c(NC(=O)c4ccccc4)ncnc32)cc1)c1cccc(C(F)(F)F)c1 in the assay.
inactive

###

For each of the compounds below, state its TGI.
- System: HT29 colon
- test_name: NCI tumour cell line growth inhibition, 48 h

Hi team, please reply with TGI for each item in this list.
1. COc1ccc(/C=C/C(=O)c2ccc(-n3cc(CN4CCN(c5cc6c(cc5F)c(=O)c(C(=O)O)cn6C5CC5)CC4)nn3)cc2)cc1OC
2. CC1(C)C2CCC3(OCCO3)C1C(O)C2 (stereo not given)
3. COc1ccc2c(c1)OCCc1cn[nH]c1-2
4. Cc1ncc(C(=O)Nc2ccc(CN3CCN(C)CC3)c(C(F)(F)F)c2)cc1C#Cc1ccc(N)nc1
5. CCSCN(C)c1nc(N(C)C)nc(N(C)C)n1
6. CCN(Cc1cc(F)ccc1F)c1ccc(CO)c(Cl)c1
7. Cn1c(=O)c2[nH]c(SCCN3CCOCC3)nc2n(C)c1=S

1: > 100 µM; 2: > 100 µM; 3: > 100 µM; 4: 1.16 µM; 5: > 100 µM; 6: 17.7 µM; 7: > 100 µM

Hi team, please reply with TGI for each item in this list.
1. C=C1C(=O)O[C@H]2[C@H]1CC/C(COC(=O)NCc1ccc(OC)cc1)=C\CC[C@@]1(C)O[C@@H]21
2. Oc1ccccc1C1C=C(c2ccccc2)NC(N2CCCCC2)=C1c1nc2ccccc2[nH]1 (stereo not given)
3. CC(=O)NC1=C(NCCCl)C(=O)c2ccccc2C1=O

1. 2.78 µM
2. 29.3 µM
3. 75.1 µM

###

- Tested on: NCI-H226 lung
- test_name: NCI tumour cell line growth inhibition, 48 h
For each of the molecules below, state its TGI.
Answers are plain numbers, in µM.

Hi team, please reply with TGI for each item in this list.
1. CC(=O)NNc1nc(C)c(C(=O)NNC(=O)C(=O)Nc2cccc(C(C)=O)c2)s1
2. OCC(CCc1ccccc1I)C1=CCC2(CC1)OCCO2 (stereo not given)
3. C=C[C@@]1(O)CCCC[C@@H]1CC(Sc1ccccc1)Sc1ccccc1
4. CC[C@@]1(OC(=O)CN)C(=O)OCc2c1cc1n(c2=O)Cc2c-1nc1cc3c(cc1c2CCl)OCO3
5. Cc1ccc(-n2cc(-c3ccc(Cl)cc3)c3c(NN)ncnc32)cc1

[62, 88.2, 38.7, 0.397, 7.96]

Hi team, please reply with TGI for each item in this list.
1. Cc1cccc2c1c1ccc3c(c1n2C)C(=O)C=CC3=O
2. COC(=O)C1=C(CS(=O)c2ccc([N+](=O)[O-])cc2[N+](=O)[O-])C2C=CC1C2 (stereo not given)
3. C=C/C(C)=C/C[C@]1(C)[C@H](C)[C@@H](OC(=O)CCC)[C@H](O)[C@@]23C(=C[C@H](OC)C[C@@H]12)[C@@H](OC(=O)CCC)O[C@H]3OC(C)=O
4. COC(=O)CCc1c(Cc2ccc[nH]2)[nH]c(C(=O)OCc2ccccc2)c1C

[32.8, 98.4, 1.34, 35.4]

Hi team, please reply with TGI for each item in this list.
1. CCN(Cc1cc(F)ccc1F)c1ccc(CO)c(Cl)c1
2. COc1cccc(CN(C)c2ccc(CO)c(Cl)c2)c1

[0.178, 0.202]
